Source of measurements: PubChem BioAssay (NCI)

tested on: NCI-H460 lung; test: NCI-60 one-dose screen, 48 h (100 = growth as untreated, 0 = no growth, -100 = all killed); details: 10 µM unless noted
This is part of a sample that, as a whole, favours compounds with a hit. Of some 83,000 tested, about 20% had one in any assay.
Each entry below lists one item and its recorded growth value.
Measurement label: growth (%)

[[record]]
compound = "CCn1c(-c2cc3c([nH]c4ccccc43)c(-c3cccc(O)c3)n2)n[nH]c1=S"
measurement_target = "NCI-H460 lung"
measure_unit = "%"
result = 47.1

[[record]]
compound = "Cc1cc2c(cc1C)N(C(=O)CCl)CC(=O)N2"
measurement_target = "NCI-H460 lung"
measure_unit = "%"
result = 88.7

[[record]]
compound = "Cc1ccc(Cl)cc1NC(=O)c1sc2nc3c(cc2c1N)C(=O)CCC3"
measurement_target = "NCI-H460 lung"
measure_unit = "%"
result = 28.1

[[record]]
compound = "O=C(N/N=C/c1cc(Cl)ccc1O)c1ccccc1Nc1ccnc(C(F)(F)F)c1"
measurement_target = "NCI-H460 lung"
measure_unit = "%"
result = 4.73

[[record]]
compound = "COc1ccc(/C=C(/c2ccccc2)[N+](=O)[O-])c(OC)c1"
measurement_target = "NCI-H460 lung"
measure_unit = "%"
result = 2.72

[[record]]
compound = "CC(=O)OC[C@]12CC[C@@H]([C@@H](C)c3nnc(-c4ccncc4)o3)[C@@H]1[C@H]1CC[C@@H]3[C@@]4(C)CC[C@H](OC(C)=O)C(C)(C)[C@@H]4CC[C@@]3(C)[C@]1(C)CC2"
measurement_target = "NCI-H460 lung"
measure_unit = "%"
result = 58.6

[[record]]
compound = "Clc1ccc(-c2cc(-c3ccccc3)nc(NCCNc3ccnc4cc(Cl)ccc34)n2)cc1"
measurement_target = "NCI-H460 lung"
measure_unit = "%"
result = -51.6

[[record]]
compound = "O=c1c2ccccc2c(=O)c2c1sc1c(=O)c3ccc(O)cc3c(=O)c12"
measurement_target = "NCI-H460 lung"
measure_unit = "%"
result = -73.1

[[record]]
compound = "O=C(CCCCCCN1CC(=O)N2[C@H](c3ccc(Br)cc3)c3[nH]c4ccccc4c3C[C@@H]2C1=O)NO"
measurement_target = "NCI-H460 lung"
measure_unit = "%"
result = 44.7

[[record]]
compound = "COc1ccc(C(=O)N2c3ccccc3Sc3ccccc32)c(C(F)(F)F)c1"
measurement_target = "NCI-H460 lung"
measure_unit = "%"
result = 9.51

[[record]]
compound = "CCN1C(=O)N(CC)C2C1NC(=S)N2/N=C/c1ccc(C(F)(F)F)cc1 (centres undefined)"
measurement_target = "NCI-H460 lung"
measure_unit = "%"
result = 75.6

[[record]]
compound = "O=C(Cc1ccccc1)Nc1cccc(N=Cc2ccccc2O)c1"
measurement_target = "NCI-H460 lung"
measure_unit = "%"
result = 107

[[record]]
compound = "CCN1C2CCC1/C(=C\\c1ccc(F)cc1)C(=O)/C2=C/c1ccc(F)cc1"
measurement_target = "NCI-H460 lung"
measure_unit = "%"
result = 46.4

[[record]]
compound = "O=C(CC(=O)Nc1cccc(C(=O)O)c1)Nc1cccc(C(=O)O)c1"
measurement_target = "NCI-H460 lung"
measure_unit = "%"
result = 100

[[record]]
compound = "COc1ccc(-c2nn(-c3ccccc3)cc2/C=C/C(=O)NNC(=O)Nc2ccc(C)cc2)cc1"
measurement_target = "NCI-H460 lung"
measure_unit = "%"
result = 102

[[record]]
compound = "COc1cccc(-c2cc(-c3cccc(Cl)c3)c(C#N)c(=O)[nH]2)c1"
measurement_target = "NCI-H460 lung"
measure_unit = "%"
result = 78.5

[[record]]
compound = "CN1CCN(C(=O)[C@@]2(C)CC[C@]3(C)CC[C@]4(C)C(=CC[C@@H]5[C@@]6(C)CCC(=O)NC(C)(C)[C@@H]6CC[C@]54C)[C@@H]3C2)CC1"
measurement_target = "NCI-H460 lung"
measure_unit = "%"
result = 31.8

[[record]]
compound = "CCOC(=O)c1cnc2c(N=Nc3ccc(OC)cc3)c(N)nn2c1N"
measurement_target = "NCI-H460 lung"
measure_unit = "%"
result = 103

[[record]]
compound = "O=C1NC(=O)/C(=C/c2c(-c3ccccc3)nc3sc(COc4ccccc4)nn23)S1"
measurement_target = "NCI-H460 lung"
measure_unit = "%"
result = 102


* * *

tested on: 786-0 renal; experiment: NCI-60 one-dose screen, 48 h (100 = growth as untreated, 0 = no growth, -100 = all killed); settings: 10 µM unless noted
Compounds without any hit were thinned out: in the full panel of roughly 83,000, 20% have a hit.
Each entry below lists one item and its recorded growth value.
Measurement label: growth (%)

[[record]]
chem_smiles = "O=C(Cc1cccc(OC(F)(F)F)c1)Nc1ccc(CCCCc2nnc(NC(=O)Cc3ccccn3)s2)nn1"
measurement_target = "786-0 renal"
result = 46.3

[[record]]
chem_smiles = "Clc1ccccc1-c1cnn2cc(-c3ccccc3)cnc12"
measurement_target = "786-0 renal"
result = 76.7

[[record]]
chem_smiles = "C/C(Cc1ccc(Cl)cc1)=C(\\c1ccc(OCCCN(C)C)cc1)c1ccc(OC(=O)Cc2ccccc2)cc1"
measurement_target = "786-0 renal"
result = 104

[[record]]
chem_smiles = "O=C1NC(=O)/C(=C/c2c(-c3ccccc3)nc3sc(COc4ccccc4)nn23)S1"
measurement_target = "786-0 renal"
result = 81.6

[[record]]
chem_smiles = "COc1ccc(/C=C/C(=O)c2cc3c(N)c(C(=O)Nc4cccc(Cl)c4C)sc3nc2C)cc1"
measurement_target = "786-0 renal"
result = 4.44

[[record]]
chem_smiles = "O=C(c1c[nH]c2ccccc12)c1n[nH]c(=S)n1-c1cccc(Br)c1"
measurement_target = "786-0 renal"
result = 103

[[record]]
chem_smiles = "COc1cc(NC(=O)c2cncnc2Nc2ccc3c(ccn3Cc3ccccn3)c2)cc(OC)c1"
measurement_target = "786-0 renal"
result = 49.4

[[record]]
chem_smiles = "O=C(CN1CCCCCC1)Nc1nc2ccc(NCc3ccc(Cl)cc3)cc2s1"
measurement_target = "786-0 renal"
result = 104

[[record]]
chem_smiles = "CN(C)c1ccc(-c2nc(-c3ccccc3)c(-c3ccccc3)[nH]2)cc1"
measurement_target = "786-0 renal"
result = 94.6

[[record]]
chem_smiles = "O=C(O)/C=C/C(=O)Nc1cccc(Cn2nnc3cc(Cl)c(Cl)cc32)c1"
measurement_target = "786-0 renal"
result = 99.7

[[record]]
chem_smiles = "COc1cccc(CCNc2ncnc3c2ncn3Cc2nnc3c4ccccc4c(Cl)nn23)c1"
measurement_target = "786-0 renal"
result = 57.7

[[record]]
chem_smiles = "Cc1ccc2c(=O)cc(C(=O)Nc3sc4c(c3C(=O)NCc3cccnc3)CCCC4)oc2c1C"
measurement_target = "786-0 renal"
result = 108

[[record]]
chem_smiles = "COc1ccc2c(c1)c(-c1nc(-c3c[nH]c4ncccc34)cs1)cn2CCCN1CCOCC1"
measurement_target = "786-0 renal"
result = -24.3

[[record]]
chem_smiles = "FC(F)(F)c1ccc(Cn2cc(CSc3nc4ccccc4s3)nn2)cc1"
measurement_target = "786-0 renal"
result = 98.1

[[record]]
chem_smiles = "O=C(O)[C@@H](Cc1ccc2ccccc2c1)NC(=O)n1c2ccccc2c2ccccc21"
measurement_target = "786-0 renal"
result = 27.7

[[record]]
chem_smiles = "C[C@H](CCCC(=O)NCC#CCN1CCN(C)CC1)[C@H]1CC[C@H]2[C@@H]3CC[C@@H]4CC(=O)CC[C@]4(C)[C@H]3CC[C@]12C"
measurement_target = "786-0 renal"
result = 97

[[record]]
chem_smiles = "O=C1/C(=C/c2ccc(F)cc2)CN(C(=O)C(Cl)Cl)C/C1=C\\c1ccc(F)cc1"
measurement_target = "786-0 renal"
result = -56.2

[[record]]
chem_smiles = "Cc1ncc(C(=O)Nc2ccc(CN3CCN(C)CC3)c(C(F)(F)F)c2)cc1C#Cc1cnc(N)c2ncccc12"
measurement_target = "786-0 renal"
result = -71.4

[[record]]
chem_smiles = "CCOC(=O)/C=C1\\S/C(=N\\Nc2cc(=O)[nH]c3ccccc23)N(c2ccccc2)C1=O"
measurement_target = "786-0 renal"
result = 101


* * *

system: PC-3 prostate; assay: NCI-60 one-dose screen, 48 h (100 = growth as untreated, 0 = no growth, -100 = all killed); conditions: 10 µM unless noted
This is part of a sample that, as a whole, favours compounds with a hit. Of some 83,000 tested, about 20% had one in any assay.
// returns Criterion not met unless growth is strictly below 90%, in which case Criterion met

[[record]]
compound = "N#C/C(=C\\C=C\\c1ccc(-c2cc(Cl)ccc2Cl)o1)c1nc2ccccc2s1"
label_class = "Criterion not met"

[[record]]
compound = "Cc1ccc2nc(-c3ccc(C(=O)NNC(=S)Nc4ccccc4)cc3)[nH]c2c1"
label_class = "Criterion met"

[[record]]
compound = "O=C(N/N=C\\c1ccccc1S(=O)(=O)O)N/N=C/c1ccccc1S(=O)(=O)O"
label_class = "Criterion not met"

[[record]]
compound = "CCN1C(=O)N(CC)C2C1NC(=S)N2/N=C/c1ccc(OC)cc1 (stereo not given)"
label_class = "Criterion met"

